- PROTOCOL: in vitro mammalian toxicity against NCTC cells
- Type: cell-based
- REPORTED CONDITIONS: 50% cytotoxic concentration, read-out: Cc50 Nctc (μm) ± SD
Entries annotated with measured CC50

# annotated cases, reported CC50 shown
[[record]]
molecule = "CCC/C=C/CCCNC(=O)c1ccc(F)cc1 [Compound 4, (E)-4-Fluoro-N-(oct-4-en-1-yl)benzamide]"
result = "> 200 µM"

[[record]]
molecule = "CCCCC(CC)CNC(=O)c1ccc(C)cc1 (stereo not drawn) [Compound 11, N-(2-Ethylhexyl)-4-methylbenzamide]"
result = "> 200 µM"

[[record]]
molecule = "CCC/C=C/CCCNC(=O)c1ccc(Cl)cc1 [Compound 5, (E)-4-Chloro-N-(oct-4-en-1-yl)benzamides]"
result = "> 200 µM"


Identify CC50 associated with the molecule CCCCC(CC)CNC(=O)c1ccc([N+](=O)[O-])cc1 (stereo not drawn) [Compound 10, N-(2-Ethylhexyl)-4-nitrobenzamide] > 200 µM

Identify CC50 associated with the molecule CCC/C=C/CCCNC(=O)c1ccc([N+](=O)[O-])cc1 [Compound 7, (E)-4-Nitro-N-(oct-4-en-1-yl)benzamide] 158 µM

Identify CC50 associated with the molecule CCCCCCCCCCCCCCCCOP(=O)([O-])OCC[N+](C)(C)C [Miltefosine, miltefosine, reference compound] 120 µM
